- protocol: Caspase-3/7 induction in CHO-K1 cells by small molecules, qHTS assay (AID 1346980); also: nearly all actives have a fitted effect of over 15% in size
- protocol.conditions: CHO-K1 caspase-3/7 induction, Caspase-Glo luminescence, 17 h; series mostly up to 92.4 µM
Active and inactive are the calls of the source. Calls follow the shape of the dose curve; as a rule, active = well fitted activation curve with a large enough effect in the repeat runs; inconclusive = weak or mixed curves; inactive = flat fitted curve, though single readings scatter.
Outcome field: choose from yes (1) = active, no (0) = inactive

- compound: "O=[N+]([O-])c1ccc(Nc2ccccc2)cc1"
  label: "no (0)"
- compound: "COc1ccc(CO)cc1"
  label: "no (0)"
- compound: "CCNCC"
  label: "no (0)"
- compound: "COP(=S)(OC)Oc1ccc(S(=O)(=O)N(C)C)cc1"
  label: "no (0)"
- compound: "CCC1(c2ccc(N)cc2)CCC(=O)NC1=O (configuration not stated)"
  label: "no (0)"

Could you check what this test reported for `CNC(=O)Oc1cccc2c1OC(C)(C)C2` ?
no (0)

Could you check what this test reported for `O=[N+]([O-])/N=C1\NCCN1Cc1ccc(Cl)nc1` ?
no (0)

Could you check what this test reported for `C=CC(=O)OCC(CC)(COC(=O)C=C)COC(=O)C=C` ?
yes (1)

Could you check what this test reported for `Nc1ccc2ccccc2c1` ?
no (0)

Could you check what this test reported for `CNC(=S)S` ?
no (0)

Could you check what this test reported for `CC(C)COC(=O)c1ccccc1C(=O)OCC(C)C` ?
no (0)

Could you check what this test reported for `Oc1ccc(Cl)cc1Cl` ?
no (0)

Could you check what this test reported for `[Cl-].[Cl-].[Cl-].[Fe+3]` ?
no (0)

Could you check what this test reported for `CCCCOCCOC(C)=O` ?
no (0)

Could you check what this test reported for `O=NN(c1ccccc1)c1ccccc1` ?
no (0)

Could you check what this test reported for CCOP(=O)(O)OCC (tested in a mixture with another compound) ?
no (0)

Could you check what this test reported for `CNC(=O)CSP(=S)(OC)OC` ?
no (0)

Could you check what this test reported for `O=C1CCCO1` ?
no (0)

Could you check what this test reported for `CC(C)(C#N)N=NC(C)(C)C#N` ?
no (0)

Could you check what this test reported for `CC(C)CON=O` ?
no (0)

Could you check what this test reported for `C[N+](C)(C)CC(=O)[O-]` ?
no (0)

Could you check what this test reported for `CCOP(=S)(OCC)SCn1c(=O)oc2cc(Cl)ccc21` ?
no (0)

Could you check what this test reported for `O=NN1CCOCC1` ?
no (0)

Could you check what this test reported for CCCCCCCCCC(CC)c1ccc(S(=O)(=O)O)cc1 (configuration not stated) ?
no (0)

Could you check what this test reported for `S=c1[nH]c2ccccc2[nH]1` ?
no (0)

Could you check what this test reported for `ClCc1ccccn1` ?
no (0)

* * *

- protocol: qHTS assay to identify small molecule antagonists of the estrogen receptor alpha (ER-alpha) signaling pathway using the BG1 cell line in the presence of 0.1 nM 17-beta-estradiol - cell viability counter screen (AID 1259241); also: nearly all actives have a fitted effect of over 40% in size; also: potency is read from the fitted curve at half-maximal effect
- protocol.conditions: VM7Luc4E2 (BG1) viability, CellTiter-Fluor protease, 22 h, 0.1 nM estradiol agonist added; series mostly up to 92.4 µM
Results filed as inconclusive are left out. Activity calls are given as the source filed them. The call rests on the fitted dose curve; in most records, active means well fitted cell-killing curve with a large enough effect in the repeat runs; inconclusive means weak or mixed curves, or effect the other way; inactive means flat fitted curve, though single readings scatter.
value.kind: Potency

- query.smiles: "Nc1ccc2ccccc2c1"
  Potency: "inactive"
- query.smiles: "C[C@]12CCC(=O)C=C1CC[C@@H]1[C@@H]2CC[C@@]2(C)[C@H]1CC[C@]2(C)O"
  Potency: "inactive"
- query.smiles: "CSc1nc(NC(C)C)nc(NC(C)C)n1"
  Potency: "inactive"
- query.smiles: "CC(C)(c1ccccc1)c1ccc(O)c(C(C)(C)c2ccccc2)c1"
  Potency: "61.1 µM (active)"

# next molecule below
Input `COc1ccc(CO)cc1` , output reported Potency.
inactive

* * *

- protocol: qHTS assay to identify small molecule agonists or antagonists of the thyroid stimulating hormone receptor (TSHR) signaling pathway - wild type cell line counter screen (AID 1259384)
- protocol.conditions: HEK293 wild type, cAMP HTRF counter-screen; series mostly up to 92.4 µM
Inconclusive results are not listed. The source made the active and inactive calls. Calls come from the whole dose curve.
value.kind: outcome

- compound: "CC(C)(c1ccc(OCC2CO2)cc1)c1ccc(OCC2CO2)cc1 (stereo not drawn)"
  value.kind: "outcome"
  reported.value: "inactive"
- compound: "CCN(CC)C(=O)C(C)Oc1cccc2ccccc12 (stereo not drawn)"
  value.kind: "outcome"
  reported.value: "inactive"
- compound: "O=[N+]([O-])c1ccc(Nc2ccccc2)cc1"
  value.kind: "outcome"
  reported.value: "inactive"
- compound: "CC1CC(=O)O1 (stereo not drawn)"
  value.kind: "outcome"
  reported.value: "inactive"

Batch: outcome for all items listed.
1. Cc1ccc([N+](=O)[O-])cc1
2. C=C(C)C#N
3. CC1=C(C(=O)Nc2ccccc2)SCCO1

["inactive", "inactive", "inactive"]

Batch: outcome for all items listed.
1. CS(=O)(=O)NC(=O)c1cc(Oc2ccc(C(F)(F)F)cc2Cl)ccc1[N+](=O)[O-]
2. Clc1ccccc1-c1nnc(-c2ccccc2Cl)nn1
3. C=CC(Cl)CCl (stereo not drawn)
4. O=[N+]([O-])c1ccc(Cl)c([N+](=O)[O-])c1
5. CC(C)(c1ccccc1)c1ccc(O)c(C(C)(C)c2ccccc2)c1
6. [CH3][Sn]([Cl])([Cl])[Cl]

1: inactive; 2: inactive; 3: inactive; 4: inactive; 5: inactive; 6: inactive

* * *

- tested.on: Acetylcholinesterase (Homo sapiens) (UniProt P22303)
- Sequence (P22303 whole entry, looked up): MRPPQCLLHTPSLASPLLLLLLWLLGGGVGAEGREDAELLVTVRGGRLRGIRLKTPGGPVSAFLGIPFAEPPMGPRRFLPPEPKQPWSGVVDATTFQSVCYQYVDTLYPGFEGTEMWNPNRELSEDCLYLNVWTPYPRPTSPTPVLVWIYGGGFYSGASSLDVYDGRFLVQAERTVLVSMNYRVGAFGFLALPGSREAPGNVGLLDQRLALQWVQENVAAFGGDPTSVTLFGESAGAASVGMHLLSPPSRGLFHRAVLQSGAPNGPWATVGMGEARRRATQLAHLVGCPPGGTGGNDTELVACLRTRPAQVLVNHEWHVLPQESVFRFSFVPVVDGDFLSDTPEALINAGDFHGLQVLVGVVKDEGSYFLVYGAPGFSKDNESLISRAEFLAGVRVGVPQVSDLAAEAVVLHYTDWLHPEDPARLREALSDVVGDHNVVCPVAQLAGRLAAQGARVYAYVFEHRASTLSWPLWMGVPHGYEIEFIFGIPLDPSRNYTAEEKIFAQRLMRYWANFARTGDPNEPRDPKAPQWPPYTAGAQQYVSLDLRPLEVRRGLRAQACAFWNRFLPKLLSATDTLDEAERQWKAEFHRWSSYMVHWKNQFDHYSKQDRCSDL
- protocol: Acetylcholinesterase (AChE) small molecule antagonists: colormetric cell-based qHTS assay (AID 1347395); also: nearly all actives have a fitted effect of over 30% in size
- protocol.conditions: SH-SY5Y cells AChE activity, colorimetric (Ellman); series mostly up to 115 µM
Inconclusive results are not listed. Active and inactive are the calls of the source. The call rests on the fitted dose curve.
value.kind: outcome

Here's what some known entries look like.
- compound: "CC(C)(O)C(=O)Nc1ccc([N+](=O)[O-])c(C(F)(F)F)c1"
  tested.on: "Acetylcholinesterase (Homo sapiens) (UniProt P22303)"
  outcome: "inactive"
- compound: "ClC(Cl)=C(Cl)C(Cl)=C(Cl)Cl"
  tested.on: "Acetylcholinesterase (Homo sapiens) (UniProt P22303)"
  outcome: "inactive"
- compound: "[CH3][Sn]([Cl])([Cl])[Cl]"
  tested.on: "Acetylcholinesterase (Homo sapiens) (UniProt P22303)"
  outcome: "inactive"
- compound: "C[N+](C)(C)CC(=O)[O-]"
  tested.on: "Acetylcholinesterase (Homo sapiens) (UniProt P22303)"
  outcome: "inactive"
- compound: "COP(=O)(NC(C)=O)SC (stereo not given)"
  tested.on: "Acetylcholinesterase (Homo sapiens) (UniProt P22303)"
  outcome: "inactive"
- compound: "CSc1nc(NC(C)C)nc(NC(C)C)n1"
  tested.on: "Acetylcholinesterase (Homo sapiens) (UniProt P22303)"
  outcome: "inactive"
- compound: "CC(C)(C#N)N=NC(C)(C)C#N"
  tested.on: "Acetylcholinesterase (Homo sapiens) (UniProt P22303)"
  outcome: "inactive"
- compound: "ClC(Cl)(Cl)c1ccccc1"
  tested.on: "Acetylcholinesterase (Homo sapiens) (UniProt P22303)"
  outcome: "inactive"
- compound: "CNC(=O)CSP(=S)(OC)OC"
  tested.on: "Acetylcholinesterase (Homo sapiens) (UniProt P22303)"
  outcome: "inactive"
- compound: "O=NN(c1ccccc1)c1ccccc1"
  tested.on: "Acetylcholinesterase (Homo sapiens) (UniProt P22303)"
  outcome: "inactive"

Batch: outcome for all items listed.
1. CNC(=S)S
2. Brc1ccc(Br)cc1
3. CCCCCCCCCCCCCl
4. CC(C)(c1ccccc1)c1ccc(O)cc1
5. Nc1ccc([N+](=O)[O-])cc1N

1: inactive; 2: inactive; 3: inactive; 4: inactive; 5: inactive

* * *

- protocol: qHTS assay to identify aromatase inhibitors - cell viability counter screen (AID 743084);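 also: cells stimulated with testosterone during compound exposure; nearly all actives have a fitted effect of over 55% in size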
- protocol.conditions: MCF-7 aro ERE viability, CellTiter-Fluor, 24 h; series mostly up to 70.3 µM
Results filed as inconclusive are left out. Activity calls are given as the source filed them. The call rests on the fitted dose curve; in most records, active means well fitted cell-killing curve with a large enough effect in the repeat runs; inconclusive means weak or mixed curves, or effect the other way; inactive means no such curve, though single readings can be large or run the other way.
value.kind: outcome

- molecule: "CN(C)c1nc(=O)n(C2CCCCC2)c(=O)n1C"
  outcome: "inactive"
- molecule: "COc1ccc(O)c(C(C)(C)C)c1"
  outcome: "inactive"
- molecule: "CCOC(=O)c1ccccc1N"
  outcome: "inactive"
- molecule: "[Cl-].[Cl-].[Cl-].[Fe+3]"
  outcome: "inactive"
- molecule: "C[N+](C)(C)CC(=O)[O-]"
  outcome: "inactive"

Batch: outcome for all items listed.
1. [CH3][Sn]([Cl])([Cl])[Cl]
2. Clc1ccc(C(Cl)(Cl)Cl)cc1
3. COP(=O)(NC(C)=O)SC (centres undefined)
4. CNC(=O)CSP(=S)(OC)OC
5. Cl

1. inactive
2. inactive
3. inactive
4. inactive
5. inactive

Batch: outcome for all items listed.
1. S=c1[nH]c2ccccc2[nH]1
2. Nc1ncn[nH]1
3. O=C(O)CF
4. C[N+](C)(C)C
5. ClCc1ccccn1
6. C=C(C)C#N
7. CC(C)CON=O

1. inactive
2. inactive
3. inactive
4. inactive
5. inactive
6. inactive
7. inactive

Batch: outcome for all items listed.
1. ClC(Cl)=C(Cl)C(Cl)=C(Cl)Cl
2. C[C@]12CCC(=O)C=C1CC[C@@H]1[C@@H]2CC[C@@]2(C)[C@H]1CC[C@]2(C)O
3. Clc1cccc(C(Cl)(Cl)Cl)n1
4. O=NN(c1ccccc1)c1ccccc1
5. CC(C)(O)C#N
6. OC(c1ccc(Cl)cc1)(c1cncnc1)c1ccccc1Cl (centres undefined)
7. CCC/C=N/O

1: inactive; 2: inactive; 3: inactive; 4: inactive; 5: inactive; 6: inactive; 7: inactive
